- experiment.notes: Proxy for plastic degradation [UPLC/UHPLC]
- reported.conditions: pH 9; 55 °C
Answer each item with its documented Proxy for plastic degradation.
Give bare numbers, in µM.

unnamed (protein) MLSKRGILGALAGGAVAVGCLTAPAHAAGFEKGPDPTTASVTADRGSYDIAQVDVPKGSGTGFADGTIYYPKSTADGTFGAVAVIPGFLEPKSAIDWYGPRLASQGFVVMTLDTTSVFDTPDSRGGQLLAALDYLTSKSTVKDRIDPNRLAVVGHSMGGGGTLSAAANRPNLKAAVALAPWHVSAPLTSVKTPTMIFGSDNDFIAPDGTFAKPFYDGISNAPEKAYVRLKNAGHMAYVFPDKRIAEYTLSWLKRYVDDDTRYTQFLCPGPTNESTIAAYKSTCPM
14.4
unnamed (protein) MTAAAVSSRYYEETGPHAVTVEQGGPDHTLYYPSDLGAGGTQHPVVIWGNGTGATPETYDEGLRHFASWGFVVAAANTTQAGSGKEMLAGARFLIEEDQRSGSVFYGKIDETRIGAAGHSQGGGGAIAAGADPIVDTTIPIQPGPQGTVGDLHGPAFFISGQFDWIVPSSYVYSRYLGADHVPAVFGELRGADHFFPGDTRLRLIGATTAWFRFHLMADENARGIFFGPSSTCGICTDTEAWSKVDRNAKAQAIPG
15.5
unnamed (protein) MRIRQALVAFCAAIAMVVAGPSYASALDSPYQRGPDPTEASVKAIAGPFAVDQVKATGHTGFGSGTIFYPKDEKGTFGTIAVSPGFISPEGLVHWYAKTLASHGFVVMAMGTFTVADPPPSRGDQLRAALDYMKTKSPVKDKVDPTRLGLSGHSMGGGGTLDAASKMPDLKAAVPLAPWYLTGGPVIPKVKAPTLVVGANIDFVAPMAIFATPFYKALTSPNKALLTLPGDHMTPFLLANPTLTKFAVSWFKRFLDDDTRYDQFLCPNPASYEGTCPLT
26.1
unnamed (protein) MQDNSDGRYRPEGRTFARGAANLFDDRLFEARTYVTGTDVAEFASATIFYPLTLSFDLPNGVVVMSPGYTGTPESYDWWGPMLASVGIITAIIETNTPEDNLEQRKNALIAGIELIKRENANSASPINNKVDESQIAIMGHSLGGGASLRAAEELEGDIKAVIPLTPYCCELGQSFEGDLKGVSTPTLIIAAADDTIAPPETHSRLLYDEINSSTNKVYLEFAEGAHGLPTNQGSEFQTQGTYVYAFLKANFTNDSKYSDFIGGDGEDSFSSYETN
16.6

Lookup result for unnamed (protein) MNFPRASRLMQAAVLGGLMAVSAAATAQTNPYARGPNPTAASLEASAGPFTVRSFTVSRPSGYGAGTVYYPTNAGGTVGAIAIVPGYTARQSSINWWGPRLASHGFVVITIDTNSTLDQPSSRSSQQMAALRQVASLNGTSSSPIYGKVDTARMGVMGWSMGGGGSLISAANNPSLKAAAPQAPWNSSTNFSSVTVPTLIFACENDSIAPVNSHALPFYNSMSRNAKQFLEINGGSHSCANSGNSNQALIGKKGVAWMKRFMDNDTRYSTFACQNPNSTRVSDFRTANCS ; measured Proxy for plastic degradation: 27.4
